Origin of measurements: ChEMBL document CHEMBL4619779

- Target Desc: Sortase A (Staphylococcus aureus, UniProt Q9S446, DELTAN24)
- Assay Summary: Inhibition of Staphylococcus aureus SrtA delta N24 mutant expressed in Escherichia coli BL21 (DE3) assessed as reduction in IsdA (64 to 323 residues) transpeptidation incubated for 20 mins by SDS-PAGE analysis
Reported Property: pIC50
Schema: pIC50 number; meaning minus log10 of the concentration expressed in molar units.

The following molecules have reported results that may help.
• Cc1noc(C)c1-n1sc(=O)n(Cc2ccccc2)c1=O = 5.34
• O=c1sn(-c2cccc3c2CCCC3)c(=O)n1Cc1ccccc1 = 4.50
• Cc1ccc(Cn2c(=O)sn(-c3cccc4ccccc34)c2=O)cc1 = 4.90
• O=c1sn(-c2cccc3ccccc23)c(=O)n1Cc1ccccc1 = 5.23

State pIC50 on Sortase A (Staphylococcus aureus, UniProt Q9S446, DELTAN24). Entry: `O=c1sn(-c2cccc3ccccc23)c(=O)n1Cc1ccc(F)cc1`
5.23

Retrieve pIC50 on Sortase A (Staphylococcus aureus, UniProt Q9S446, DELTAN24); query `Cc1noc(C)c1-n1sc(=O)n(Cc2ccc(Cl)c(Cl)c2)c1=O`
5.47

Jot down pIC50 (Sortase A (Staphylococcus aureus, UniProt Q9S446, DELTAN24)) of `O=c1sn(-c2cccc3ccccc23)c(=O)n1Cc1ccc(Cl)c(Cl)c1` .
4.84

# lookup: Sortase A (Staphylococcus aureus, UniProt Q9S446, DELTAN24) pIC50, key = `O=c1sn(Cc2ccccc2)c(=O)n1Cc1ccc(Cl)c(Cl)c1`
4.71

Provide Sortase A (Staphylococcus aureus, UniProt Q9S446, DELTAN24) pIC50 reading for `O=c1sn(-c2cccc3c2CCC3)c(=O)n1Cc1ccccc1` .
4.34

Under Sortase A (Staphylococcus aureus, UniProt Q9S446, DELTAN24): report pIC50 of `Cc1noc(C)c1-n1sc(=O)n(Cc2ccc(Cl)cc2)c1=O` .
5.39

Report pIC50 on Sortase A (Staphylococcus aureus, UniProt Q9S446, DELTAN24) for this entry: `CCn1c(=O)sn(-c2c(C)noc2C)c1=O`
5.20
